# Measured Target: Voltage-gated inwardly rectifying potassium channel KCNH2 (Homo sapiens, UniProt Q12809)
# Sequence (Q12809 whole entry): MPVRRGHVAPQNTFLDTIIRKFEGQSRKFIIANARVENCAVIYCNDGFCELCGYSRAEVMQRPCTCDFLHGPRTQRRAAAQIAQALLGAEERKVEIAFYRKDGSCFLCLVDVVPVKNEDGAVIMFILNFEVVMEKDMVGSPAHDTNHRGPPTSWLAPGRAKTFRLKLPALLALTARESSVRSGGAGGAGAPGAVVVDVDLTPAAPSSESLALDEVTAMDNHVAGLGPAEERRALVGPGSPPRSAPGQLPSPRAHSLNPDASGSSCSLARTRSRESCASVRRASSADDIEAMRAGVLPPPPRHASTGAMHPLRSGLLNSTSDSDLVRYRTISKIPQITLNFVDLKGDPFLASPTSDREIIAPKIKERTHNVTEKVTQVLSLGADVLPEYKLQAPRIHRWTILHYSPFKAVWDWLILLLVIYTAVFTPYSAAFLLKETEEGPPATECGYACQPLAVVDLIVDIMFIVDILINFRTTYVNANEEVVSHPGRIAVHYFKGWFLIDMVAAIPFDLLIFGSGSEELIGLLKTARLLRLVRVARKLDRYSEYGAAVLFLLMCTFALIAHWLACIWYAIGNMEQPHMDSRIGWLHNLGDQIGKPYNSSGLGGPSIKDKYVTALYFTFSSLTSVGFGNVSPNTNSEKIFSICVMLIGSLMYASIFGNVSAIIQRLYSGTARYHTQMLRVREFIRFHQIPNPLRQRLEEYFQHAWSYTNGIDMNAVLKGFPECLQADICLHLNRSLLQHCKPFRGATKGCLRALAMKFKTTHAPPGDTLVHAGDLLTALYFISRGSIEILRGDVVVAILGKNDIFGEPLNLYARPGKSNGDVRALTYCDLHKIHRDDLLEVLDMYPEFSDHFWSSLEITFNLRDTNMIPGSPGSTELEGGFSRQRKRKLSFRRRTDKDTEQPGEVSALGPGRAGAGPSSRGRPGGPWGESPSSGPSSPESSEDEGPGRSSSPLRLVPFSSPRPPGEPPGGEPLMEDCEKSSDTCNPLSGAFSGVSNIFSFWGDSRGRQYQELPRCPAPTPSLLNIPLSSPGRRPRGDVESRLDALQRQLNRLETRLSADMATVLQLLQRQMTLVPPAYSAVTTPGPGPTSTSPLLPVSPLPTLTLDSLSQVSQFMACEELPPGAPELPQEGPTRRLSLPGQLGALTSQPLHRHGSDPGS
# Assay Name: SafetyScreen: hERG Human Potassium Ion Channel [3H] Dofetilide Binding Antagonist Radioligand SafetyScreen, catalogue number: 4094
# Experimental Setup: at 10 µM, test compound concentration 10 uM
Reported Endpoint: Inhibition (%)
One number for each entry, in %.

Please give Inhibition for each item listed below.
1. CC(C)[C@@H](Nc1ncnc2[nH]c(C(=O)N[C@@H]3CCN(C)C3)cc12)c1ccc2c(c1)S(=O)(=O)CCC2
2. COc1ccc([C@H](Cc2nnn[nH]2)NC(=O)c2ncnc3[nH]ccc23)cc1
3. CC(C)[C@H](Nc1ncnc2[nH]ccc12)c1ccc2c(c1)S(=O)(=O)CCC2
4. Cc1nn(C)cc1-c1cc2c(N[C@H](c3ccc4c(c3)S(=O)(=O)CCC4)C(C)C)ncnc2[nH]1

[7, 5, 20, 3]

Please give Inhibition for each item listed below.
1. CC(C)[C@H](Nc1ncnc2[nH]c(-c3cnn(C)c3C#N)cc12)c1ccc2c(n1)OCCO2
2. CNC(=O)Cn1cc(-c2cc3c(N[C@@H](c4ccc5c(c4)S(=O)(=O)CCC5)C(C)C)ncnc3[nH]2)cn1
3. CC(C)[C@@H](Nc1ncnc2[nH]c(-c3cnn(C)c3C#N)cc12)c1ccc2c(n1)OCCO2
4. C[C@H](C(=O)O)[C@@H](NC(=O)c1ncnc2[nH]ccc12)c1ccc(Br)cc1
5. Cn1ncc(-c2cc3c(N[C@@H](c4ccc5c(n4)OCCO5)C(C)(C)C)ncnc3[nH]2)c1C#N

1. 29
2. 4
3. 32
4. 14
5. 36

====

# System: Voltage-gated sodium channel
# Assay Name: SafetyScreen: Sodium Ion Channel Site 2 (Non-Selective) Rat Ion Channel [3H] Batrachotoxinin Binding LeadHunter Assay, catalogue number: 169
# Format: protein assay
# Experimental Setup: at 10 µM, test compound concentration 10 uM
Answer each item with its documented Inhibition.
Give bare numbers, in %.

Below, each entry is followed by its recorded Inhibition result.
INSERT INTO results (chemical_smiles, reported_endpoint, measurement) VALUES
  ('CC(C)[C@@H](Nc1ncnc2[nH]c(C(=O)N[C@@H]3CCN(C)C3)cc12)c1ccc2c(c1)S(=O)(=O)CCC2', 'Inhibition', 16),
  ('Cn1ncc(-c2cc3c(N[C@@H](c4ccc5c(n4)OCCO5)C(C)(C)C)ncnc3[nH]2)c1C#N', 'Inhibition', 34),
  ('C[C@H](C(=O)O)[C@@H](NC(=O)c1ncnc2[nH]ccc12)c1ccc(Br)cc1', 'Inhibition', 6);

Okay, now this compound:
Any idea what its Inhibition is? The compound is CC(C)[C@H](Nc1ncnc2[nH]c(-c3cnn(C)c3C#N)cc12)c1ccc2c(n1)OCCO2
10

====

# Measured Target: Histamine H1 receptor (Homo sapiens) (UniProt P35367)
# Sequence (P35367 whole entry): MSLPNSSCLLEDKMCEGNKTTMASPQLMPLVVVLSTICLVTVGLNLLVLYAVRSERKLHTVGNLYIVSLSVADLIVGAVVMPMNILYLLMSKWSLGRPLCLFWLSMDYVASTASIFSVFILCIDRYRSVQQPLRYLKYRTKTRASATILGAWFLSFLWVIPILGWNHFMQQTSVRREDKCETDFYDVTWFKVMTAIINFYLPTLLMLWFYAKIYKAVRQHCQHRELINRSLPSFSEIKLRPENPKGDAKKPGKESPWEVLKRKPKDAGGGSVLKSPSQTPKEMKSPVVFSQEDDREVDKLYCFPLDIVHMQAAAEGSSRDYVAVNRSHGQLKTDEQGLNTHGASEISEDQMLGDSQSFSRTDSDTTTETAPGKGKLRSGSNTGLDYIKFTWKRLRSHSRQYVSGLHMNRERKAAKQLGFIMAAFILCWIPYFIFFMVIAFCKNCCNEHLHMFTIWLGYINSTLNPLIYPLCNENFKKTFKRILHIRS
# Assay Name: SafetyScreen: H1 Human Histamine GPCR Binding Antagonist Radioligand LeadHunter Assay, catalogue number: 870
# Experimental Setup: Test compound concentration 10.0 uM
Reported Endpoint: inhibition (%)
Numbers only, in %.

Please give inhibition for each item listed below.
1. CC(C)[C@H](Nc1ncnc2[nH]c(-c3cnn(C)c3C#N)cc12)c1ccc2c(n1)OCCO2
2. C[C@H](C(=O)O)[C@@H](NC(=O)c1ncnc2[nH]ccc12)c1ccc(Br)cc1
3. CNCc1cc(-c2cc3c(N[C@@H](c4ccc5c(c4)S(=O)(=O)CCC5)C(C)C)ncnc3[nH]2)co1
4. CC(C)[C@@H](Nc1ncnc2[nH]c(C(=O)N[C@@H]3CCN(C)C3)cc12)c1ccc2c(c1)S(=O)(=O)CCC2
5. Cc1nn(C)cc1-c1cc2c(N[C@H](c3ccc4c(c3)S(=O)(=O)CCC4)C(C)C)ncnc2[nH]1
6. CNC(=O)Cn1cc(-c2cc3c(N[C@@H](c4ccc5c(c4)S(=O)(=O)CCC5)C(C)C)ncnc3[nH]2)cn1
7. CC(C)[C@H](Nc1ncnc2[nH]ccc12)c1ccc2c(c1)S(=O)(=O)CCC2
8. Cn1ncc(-c2cc3c(N[C@@H](c4ccc5c(n4)OCCO5)C(C)(C)C)ncnc3[nH]2)c1C#N

1. 5
2. -8
3. -3
4. 2
5. 0
6. -5
7. -3
8. 7

Please give inhibition for each item listed below.
1. COc1ccc([C@H](Cc2nnn[nH]2)NC(=O)c2ncnc3[nH]ccc23)cc1
2. CC(C)[C@@H](Nc1ncnc2[nH]c(-c3cnn(C)c3C#N)cc12)c1ccc2c(n1)OCCO2

1: -4; 2: 0
